system-name: M1 muscarinic receptor (Rattus norvegicus)
Construct: from tissue; host or cells: rat brain tissue
Sequence (P08482 whole entry): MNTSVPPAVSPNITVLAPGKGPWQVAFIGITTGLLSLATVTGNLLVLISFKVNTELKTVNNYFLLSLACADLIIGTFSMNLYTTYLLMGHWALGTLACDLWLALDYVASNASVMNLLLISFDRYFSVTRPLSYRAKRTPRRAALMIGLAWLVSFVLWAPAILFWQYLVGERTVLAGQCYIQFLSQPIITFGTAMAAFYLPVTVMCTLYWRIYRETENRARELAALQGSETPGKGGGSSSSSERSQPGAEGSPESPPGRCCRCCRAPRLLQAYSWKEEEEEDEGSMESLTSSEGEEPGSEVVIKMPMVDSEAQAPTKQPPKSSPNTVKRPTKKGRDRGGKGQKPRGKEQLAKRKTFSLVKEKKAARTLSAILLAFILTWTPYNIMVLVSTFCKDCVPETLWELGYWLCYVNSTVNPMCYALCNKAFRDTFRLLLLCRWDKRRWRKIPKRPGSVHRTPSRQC
assay-method-text: [3H]-Pirenzepine M1 receptor binding, rat brain tissue
settings: ratio of M2 IC50 to M1 IC50
measured-endpoint: M2/M1

The examples below pair each entry with its known result.
Cc1nnc(NCCCCN2CCN(C)CC2)c2cc3ccccn3c12 :: 25
CCN1CCCC1CNc1nnc(C)c2c1cc1ccccn12 (centres unmarked) :: 24

[I] CCN(CC)CCCNc1nnc(C)c2c1cc1ccccn12
[II] Cc1nnc(NCCCN2CCN(C)CC2)c2cc3ccccn3c12
# input // compare measured M2/M1 between I and II ; output the lower one Select an item and report its label.
# output II
(II: 19, I: 42)
